- subject_of_test: Hck (UniProt P08631)
- Sequence (P08631 whole entry, looked up): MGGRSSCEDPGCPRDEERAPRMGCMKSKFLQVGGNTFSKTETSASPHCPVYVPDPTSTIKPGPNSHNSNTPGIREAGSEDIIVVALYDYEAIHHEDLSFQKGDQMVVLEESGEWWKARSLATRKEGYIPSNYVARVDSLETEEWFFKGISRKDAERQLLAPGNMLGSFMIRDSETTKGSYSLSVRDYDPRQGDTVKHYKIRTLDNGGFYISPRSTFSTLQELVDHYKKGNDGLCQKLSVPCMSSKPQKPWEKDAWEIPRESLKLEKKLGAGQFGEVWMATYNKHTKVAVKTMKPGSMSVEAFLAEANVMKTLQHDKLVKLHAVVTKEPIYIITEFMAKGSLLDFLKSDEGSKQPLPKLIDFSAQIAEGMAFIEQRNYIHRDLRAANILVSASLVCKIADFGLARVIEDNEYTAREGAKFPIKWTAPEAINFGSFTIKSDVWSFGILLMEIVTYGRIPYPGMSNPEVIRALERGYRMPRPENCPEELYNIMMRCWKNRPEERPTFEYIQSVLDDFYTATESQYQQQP
- assay_summary: phosphorylation enrichment, bacterial display (enrichment ratio); higher = better substrate or ligand; peptides without Tyr show the background;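 further: 11-residue human phosphosite peptides and single-mutation variants displayed on the E. coli surface, counted by deep sequencing, each peptide's frequency after selection divided by its frequency in the unselected input library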;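 further: frequency after pTyr selection over input frequency; kinase dosed for 20-30% of maximal phosphorylation in three min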
assay_metric: phosphorylation enrichment
The answer should be a number; do not append a unit.

Input WNDLDYMDSRR [GAA_Y407] , output reported phosphorylation enrichment.
0.471

Input ISGLKYPVSQQ [BTK_Y375_R372G] , output reported phosphorylation enrichment.
0.448

Input RSACTYLASHL [PLK3_Y615] , output reported phosphorylation enrichment.
0.4

Input FSEVRYVKEPY [HIPK4_Y170] , output reported phosphorylation enrichment.
0.388

Input LHAAAYRNALA [UQCRC2_Y182] , output reported phosphorylation enrichment.
0.484

Input IFGVSYDEYRY [CFTR_Y512] , output reported phosphorylation enrichment.
0.617

Input KVMANYMFKAG [MAML2_Y513_YF] , output reported phosphorylation enrichment.
0.342

Input QTEAPYRFIYM [PTPN11_Y511_Q510P] , output reported phosphorylation enrichment.
0.984

Input QNTGGYYDLYG [PTPN11_Y62_D61G] , output reported phosphorylation enrichment.
8.85

Input NLSVRYDSSLK [ABCC8_Y1353] , output reported phosphorylation enrichment.
0.473

Input FLAVGYHQPHI [IDS_Y225_K227Q] , output reported phosphorylation enrichment.
0.405

Input VLALWYFFLTH [ZDHHC23_Y127_YF] , output reported phosphorylation enrichment.
0.682

Input NALVQYQEMEK [BBS4_Y395_A393V] , output reported phosphorylation enrichment.
0.569

Input SELVCYDARVH [MET_Y971_R970C] , output reported phosphorylation enrichment.
0.816

Input QAFSWYQHQRA [NDST1_Y714_R709Q_YF] , output reported phosphorylation enrichment.
0.547

Input NKEAICSGYIR [SMCHD1_Y283_Y283C] , output reported phosphorylation enrichment.
0.424

Input EKHGQYLIGHG [EPHB4_Y581_D576E] , output reported phosphorylation enrichment.
0.475

Input HKLSFCEFDFE [BTK_Y40_Y40C_YF] , output reported phosphorylation enrichment.
0.83

Input GSTLSYFGLAA [P2RX7_Y343] , output reported phosphorylation enrichment.
0.63

Input PIPIKYKAMKK [MYD88_Y257_L252P] , output reported phosphorylation enrichment.
0.582

Input AHAGEYGAVAL [HBA1_Y25_E28V] , output reported phosphorylation enrichment.
3.27

Input ARDVIYIIIPA [FRKtide_2014] , output reported phosphorylation enrichment.
1.23

Input MGHVNYGAFIN [GLB1_Y485_R482H_YF] , output reported phosphorylation enrichment.
0.609

Input AFLQTYAHEVS [PCDHGA5_Y753_S754A] , output reported phosphorylation enrichment.
0.506

Input TENAGYYFQVS , output reported phosphorylation enrichment.
0.563

Input SHLLRYLSWTV [CLCNKB_Y93] , output reported phosphorylation enrichment.
0.544

Input TFMKKYPKVFL [CNBD1_Y70_Q69K] , output reported phosphorylation enrichment.
0.366

Input VLNDAYENLTR [SYNE2_Y3255] , output reported phosphorylation enrichment.
0.521

Input MDYRSYPHEYG [RBM10_Y44_R46H] , output reported phosphorylation enrichment.
0.484

* * *

- subject_of_test: FGFR1 (UniProt P11362)
- Sequence (P11362 whole entry, looked up): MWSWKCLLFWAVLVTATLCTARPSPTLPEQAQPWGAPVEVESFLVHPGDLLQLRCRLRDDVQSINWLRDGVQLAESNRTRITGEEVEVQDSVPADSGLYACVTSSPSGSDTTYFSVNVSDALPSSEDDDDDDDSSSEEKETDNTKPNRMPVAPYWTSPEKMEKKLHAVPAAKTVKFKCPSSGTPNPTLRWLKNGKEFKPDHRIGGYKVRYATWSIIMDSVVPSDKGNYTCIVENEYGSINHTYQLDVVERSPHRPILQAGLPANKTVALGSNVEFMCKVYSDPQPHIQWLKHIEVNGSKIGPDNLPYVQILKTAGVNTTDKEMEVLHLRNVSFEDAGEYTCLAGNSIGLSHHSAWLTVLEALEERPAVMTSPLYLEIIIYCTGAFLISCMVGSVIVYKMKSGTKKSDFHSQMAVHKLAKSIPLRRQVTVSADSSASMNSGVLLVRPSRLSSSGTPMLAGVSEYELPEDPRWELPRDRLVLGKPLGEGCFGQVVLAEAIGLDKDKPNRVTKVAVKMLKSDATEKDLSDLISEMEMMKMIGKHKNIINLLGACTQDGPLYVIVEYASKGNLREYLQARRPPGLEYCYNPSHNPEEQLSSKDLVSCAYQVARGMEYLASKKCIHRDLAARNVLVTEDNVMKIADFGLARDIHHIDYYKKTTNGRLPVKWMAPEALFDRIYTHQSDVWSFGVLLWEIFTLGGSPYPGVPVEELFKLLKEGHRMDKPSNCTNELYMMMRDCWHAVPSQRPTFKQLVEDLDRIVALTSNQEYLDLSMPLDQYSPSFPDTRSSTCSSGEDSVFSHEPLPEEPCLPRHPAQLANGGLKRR
- assay_summary: phosphorylation enrichment, bacterial display (enrichment ratio); higher = better substrate or ligand; peptides without Tyr show the background
assay_metric: phosphorylation enrichment

Input DPYHVYIKNHV [KCNE3_Y95_R99H] , output reported phosphorylation enrichment.
0.447

Input RPFFLYVAFHD [SGSH_Y174] , output reported phosphorylation enrichment.
0.503

Input AAGGRYFGLVG [HARS1_Y363_D364Y_YF] , output reported phosphorylation enrichment.
0.375

Input CVAARYMDMKG [WFIKKN2_Y93_V96M] , output reported phosphorylation enrichment.
0.36

Input LADMNYVHCDL [EPHB2_Y742_R745C] , output reported phosphorylation enrichment.
0.811

Input MPAVTYTLAMR [MEGF10_Y895_P897L] , output reported phosphorylation enrichment.
0.453

Input GDFLSYREFHS [ERBIN_Y1107_YF] , output reported phosphorylation enrichment.
0.432

Input KNNDGYIDFAE [MCFD2_Y135_YF] , output reported phosphorylation enrichment.
0.556

Input IIGNGYFFRVF [MYBPC3_Y1135_YF] , output reported phosphorylation enrichment.
0.334

Input VERIGYDFIPT [CBS_Y308_G305R] , output reported phosphorylation enrichment.
0.56

Input TLQSMFGCDVG [HLA-B_Y123_Y123F] , output reported phosphorylation enrichment.
0.515

Input AGDGRYEVLFL [SEMA3F_Y478_A474G] , output reported phosphorylation enrichment.
0.533

Input NNKKDYYDMYE [SLC26A3_Y526_K521N] , output reported phosphorylation enrichment.
8.57

Input ETDTRYFDEEF [AKT1_Y437] , output reported phosphorylation enrichment.
0.567

Input GQECKYPPTQD [METAP2_Y137_E136K] , output reported phosphorylation enrichment.
0.569

Input TRLAQYDSNSK [BMX_Y216_S212R] , output reported phosphorylation enrichment.
0.527

Input RSRQIYDAYIM [GRK3_Y109] , output reported phosphorylation enrichment.
0.511

Input VVAHHYSFAPD [TNS3_Y601_Q600H] , output reported phosphorylation enrichment.
0.683

Input DALDNYVIRGV [PCCA_Y473] , output reported phosphorylation enrichment.
0.486

Input EREYKYGAHNH [OAT_Y50_Y55H] , output reported phosphorylation enrichment.
0.485

Input TGDFGYRTPGY [TNS2_Y668_A670T] , output reported phosphorylation enrichment.
0.404

Input VTVLDYEKIGK [SYT1_Y365_D366E] , output reported phosphorylation enrichment.
0.456

Input RSAGKYDVFLI [MECP2_Y120_YF] , output reported phosphorylation enrichment.
0.352

Input FADIAYIYRHG [PAH_Y166_N167I] , output reported phosphorylation enrichment.
0.616

Input SLQFEYVHYGG [CDC14A_Y591_S589F] , output reported phosphorylation enrichment.
0.797

Input ANFAKYGNPNE [BCHE_Y505] , output reported phosphorylation enrichment.
0.462

Input FLAVGYHQPHI [IDS_Y225_K227Q] , output reported phosphorylation enrichment.
0.391

Input FISVGYVDDTQ [HLA-B_Y51] , output reported phosphorylation enrichment.
0.556

Input FRASFYRRGDR [LTK_Y677_YF] , output reported phosphorylation enrichment.
0.549

* * *

Please respond with reported phosphorylation enrichment for every item in the list.
- subject_of_test: Hck (UniProt P08631)
- assay_summary: phosphorylation enrichment, bacterial display (enrichment ratio); higher = better substrate or ligand; peptides without Tyr show the background
The answer should be a number; do not append a unit.

Input EMFNPCFGLFE [NEDD4L_Y679_Y679C_YF] , output reported phosphorylation enrichment.
0.562

Input PLDGESFTLQI [TP53_Y327_Y327S] , output reported phosphorylation enrichment.
0.619

Input HEHVGYTTLNR [CHN1_Y148_Y143H] , output reported phosphorylation enrichment.
0.57

Input VGSIKYLKREW [KCNMA1_Y885_E884K] , output reported phosphorylation enrichment.
0.446

Input IEPCIYIPEDD [XPNPEP3_Y455_G453C] , output reported phosphorylation enrichment.
0.696

Input DFDNLYFWDQD [ERBB2_Y1221_A1216D_YF] , output reported phosphorylation enrichment.
5.15

Input CTTIHQNFMCN [TP53_Y234_Y234Q_YF] , output reported phosphorylation enrichment.
0.397

Input PADCRYYTFPQ [GAMT_Y222_A224T] , output reported phosphorylation enrichment.
2.64

Input GVKLTYGDAQN [SLC28A1_Y404] , output reported phosphorylation enrichment.
0.369

Input HNLPIYEGYAL [ACTA1_Y168_V165L] , output reported phosphorylation enrichment.
9.09

Input TLQSMFGCDVG [HLA-B_Y123_Y123F] , output reported phosphorylation enrichment.
0.489

Input QPEDIYHQTWA [GBA_Y244_G241E] , output reported phosphorylation enrichment.
4.47

Input PEVRRHVLPLN [RPE65_Y368_Y368H] , output reported phosphorylation enrichment.
0.894

* * *

- subject_of_test: FGFR1 (UniProt P11362)
- assay_summary: phosphorylation enrichment, bacterial display (enrichment ratio); higher = better substrate or ligand; peptides without Tyr show the background
Please respond with reported phosphorylation enrichment for every item in the list.
The answer should be a number; do not append a unit.

Input LFSGDYFRIQG [DDR2_Y740_YF] , output reported phosphorylation enrichment.
23.1

Input YCRHNYGVGES [HLA-DRB1_Y112_V115G] , output reported phosphorylation enrichment.
0.549

Input SLGKGYYDGGC [MC4R_Y35_S36Y] , output reported phosphorylation enrichment.
0.635

Input ISSLDYISKTK [VAV3_Y294] , output reported phosphorylation enrichment.
0.505

Input GHGEEYPAAGA [NOTCH3_Y2221] , output reported phosphorylation enrichment.
0.413

Input ETKAFYPEEIS [HSPA1A_Y115] , output reported phosphorylation enrichment.
0.521

Input CTTIHQNFMCN [TP53_Y234_Y234Q_YF] , output reported phosphorylation enrichment.
0.459

Input NPQKSYFIHLY [WAS_Y83_R86H] , output reported phosphorylation enrichment.
0.46

Input DLAAQYTTVGR [SGSH_Y240] , output reported phosphorylation enrichment.
0.462

Input QRPGPYDRPGA [HNRNPH2_Y210] , output reported phosphorylation enrichment.
0.43

Input LQLLGHRPVFS [CHST6_Y358_Y358H_YF] , output reported phosphorylation enrichment.
0.657

Input RHNEIYEIKVD [LGR5_Y387] , output reported phosphorylation enrichment.
0.724

Input YSKDNYKRVTG [PANK2_Y405] , output reported phosphorylation enrichment.
0.456

Input VLALWYFFLTH [ZDHHC23_Y127_YF] , output reported phosphorylation enrichment.
2.08

Input FSGLAYTMERS [GLUD1_Y512_H507Y_YF] , output reported phosphorylation enrichment.
0.455

Input MEYAKYGSLRG [RET_Y809_V804M] , output reported phosphorylation enrichment.
0.461

Input LIDGYYRLTED [JAK2_Y373_A377E] , output reported phosphorylation enrichment.
1.51

Input QTLTDYDTRFF [CSNK2A3_Y131_I133T_YF] , output reported phosphorylation enrichment.
0.666

Input NHYKIHNLCAE [PTEN_Y68_Y68H] , output reported phosphorylation enrichment.
0.493

Input SEKISYVYMKR [SSX7_Y48_L43S] , output reported phosphorylation enrichment.
0.6

Input EFEGLYQEGGG [TMEM159_Y159] , output reported phosphorylation enrichment.
0.5

Input RLLRGYDQFAY [HLA-C_Y137_S140F] , output reported phosphorylation enrichment.
0.49

Input EPGNLYIAKVE [CNTN4_Y180_T176P] , output reported phosphorylation enrichment.
0.435

Input SVTCTYSRALN [TP53_Y126_P128R] , output reported phosphorylation enrichment.
0.461

Input DSSIRYLQEIH [FGG_Y135_Y140H] , output reported phosphorylation enrichment.
0.384

Input QPEDIYHQTWA [GBA_Y244_G241E] , output reported phosphorylation enrichment.
6.95

Input VGQRPYQPLPE [REEP3_Y170] , output reported phosphorylation enrichment.
0.47

Input EAGKVYLKAPM [CBFB_Y96] , output reported phosphorylation enrichment.
0.433

Input PIPIKYKAMKK [MYD88_Y257_L252P] , output reported phosphorylation enrichment.
0.383

Input GLAELYEYKKK [CKAP5_Y1854] , output reported phosphorylation enrichment.
0.7

Input NLSVRYDSSLK [ABCC8_Y1353] , output reported phosphorylation enrichment.
0.446

Input FCIDHYLGKEM [G6PD_Y202_R198C_YF] , output reported phosphorylation enrichment.
0.397

Input NFYEYYVDDPL [GCHFR_Y48_P53L] , output reported phosphorylation enrichment.
7.28

Input MDFRSYPHEFG [RBM10_Y44_R46H_YF] , output reported phosphorylation enrichment.
0.464

Input RQEEEYKRFSE [SFSWAP_Y133_L136F] , output reported phosphorylation enrichment.
0.712

Input IYKAAYFGVYD [SLC25A4_Y191_R188K] , output reported phosphorylation enrichment.
0.628

Input IGRHAYGDQYR [IDH1_Y135] , output reported phosphorylation enrichment.
0.398

Input LFEDHYLLGTS [ASS1_Y87_R86H_YF] , output reported phosphorylation enrichment.
0.494

Input FMFKVYSDPQP [FGFR1_Y280_C277Y_YF] , output reported phosphorylation enrichment.
0.572

Input MSLRSYGSWEG [APC_Y96_R99W] , output reported phosphorylation enrichment.
0.034

Input PTTKTYFPHFG [HBA1_Y43_D48G] , output reported phosphorylation enrichment.
0.501

Input LDVDVYGPSVP [NUBPL_Y109] , output reported phosphorylation enrichment.
0.483

Input AALLNYKAGRD [GRIN2A_Y737_V734L] , output reported phosphorylation enrichment.
0.508

Input RIILLYIFLKN [STXBP1_Y411] , output reported phosphorylation enrichment.
0.466

Input INITIYGKTFR [EFHC1_Y177] , output reported phosphorylation enrichment.
0.583

Input CEHRGYLFLAI [TEK_Y897_YF] , output reported phosphorylation enrichment.
0.545

Input IRKAEYPFSSE [ATP2C1_Y452] , output reported phosphorylation enrichment.
0.392

Input VIKDKYPKARF [APTX_Y209_YF] , output reported phosphorylation enrichment.
0.425

Input FNDSAYNQQLI [ZPLD1_Y198_T197A_YF] , output reported phosphorylation enrichment.
0.338

Input WASQRYGRELR [BAD_Y110_A107S] , output reported phosphorylation enrichment.
0.39

Input VLPIDYFFPPQ [AR_Y552_YF] , output reported phosphorylation enrichment.
11.5

Input VMLENYSNLVS [ZFP69_Y109] , output reported phosphorylation enrichment.
0.654

Input SVVVPYEPPEI [TP53_Y220_V225I] , output reported phosphorylation enrichment.
0.44

Input KKILCYIQGGS [HYDIN_Y4610_N4606K] , output reported phosphorylation enrichment.
0.439

Input NFATLHLKIYH [PDE6B_Y219_Y219H] , output reported phosphorylation enrichment.
0.423

Input AQADIYKANFQ [IKBKG_Y308_D311N] , output reported phosphorylation enrichment.
0.389

Input LERDIYNREEF [HLA-DPB1_Y59_Y57D] , output reported phosphorylation enrichment.
1.03

Data provenance is the supplement of paper PMC10065799.
